- EXPERIMENT: Probe fluorescence ratio response to arachidonic acid relative to ADIFAB2
- Format: binding
- EXPERIMENTAL SETUP: arachidonic acid; response relative to ADIFAB2
Measured DR/DR AA by item

MOLECULE	DR/DR AA
102E, 72A (protein, listed as Rattus norvegicus, PEPTIDE (1)...(131) wild-type rat intestinal fatty acid binding protein) AFDGTWKVDRNENYEKFMEKMGINVVKRKLGAHDNLKLTITQEGNKFTVKESSNFRNIDVVFELGVDFAYSAADGTELTGTWTMEGNKLVGKFKRVDNGKEEIAVREISGNELIQTYTYEGVEAKRIFKKE	0.56
14L 72A (protein, listed as Rattus norvegicus, PEPTIDE (1)...(131) wild-type rat intestinal fatty acid binding protein) AFDGTWKVDRNENLEKFMEKMGINVVKRKLGAHDNLKLTITQEGNKFTVKESSNFRNIDVVFELGVDFAYSAADGTELTGTWTMEGNKLVGKFKRVDNGKELIAVREISGNELIQTYTYEGVEAKRIFKKE	0.838
34H, 72A (protein, listed as Rattus norvegicus, PEPTIDE (1)...(131) wild-type rat intestinal fatty acid binding protein) AFDGTWKVDRNENYEKFMEKMGINVVKRKLGAHHNLKLTITQEGNKFTVKESSNFRNIDVVFELGVDFAYSAADGTELTGTWTMEGNKLVGKFKRVDNGKELIAVREISGNELIQTYTYEGVEAKRIFKKE	0.65
